Listed below: ADCC on L-428 cells with human PBMCs, EC50 values for each entry.
system tested: T1, human CC chemokine receptor 4 (CCR4) (human, UniProt P51679 1-360)
T1 sequence (looked up): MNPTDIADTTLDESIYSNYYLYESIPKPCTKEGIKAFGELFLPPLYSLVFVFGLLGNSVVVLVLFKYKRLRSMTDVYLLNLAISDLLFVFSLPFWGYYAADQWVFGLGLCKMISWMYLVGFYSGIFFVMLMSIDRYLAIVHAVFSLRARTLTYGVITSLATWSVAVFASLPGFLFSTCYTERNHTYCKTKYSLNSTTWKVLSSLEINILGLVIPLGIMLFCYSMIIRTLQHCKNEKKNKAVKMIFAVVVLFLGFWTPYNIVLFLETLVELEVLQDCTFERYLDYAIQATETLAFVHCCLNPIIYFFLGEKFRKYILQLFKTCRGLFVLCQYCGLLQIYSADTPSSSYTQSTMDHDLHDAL
test details: cell-based or functional assay
recorded endpoint: ADCC on L-428 cells with human PBMCs, EC50 (nM)

binder: KW0761 IgG (antibody, V domains shown) VH: EVQLVESGGDLVQPGRSLRLSCAASGFIFSNYGMSWVRQAPGKGLEWVATISSASTYSYYPDSVKGRFTISRDNAKNSLYLQMNSLRVEDTALYYCGRHSDGNFAFGYWGQGTLVTVSS VL: DVLMTQSPLSLPVTPGEPASISCRSSRNIVHINGDTYLEWYLQKPGQSPQLLIYKVSNRFSGVPDRFSGSGSGTDFTLKISRVEAEDVGVYYCFQGSLLPWTFGQGTKVEIK
units: nM
test result: 0.057
//
binder: IgG form of antibody 503 (defucosylated IgG1) (antibody, V domains shown, Human IgG1, lambda light chain; produced in presence of Kifunensine (defucosylated); Biotinylated via cysteines for the human serum experiment) VH: QVQLVQSGAEVKKPGSSVKVSCKASEGTFSSYAMSWVRQAPGQGLEWMGGIIPIFGTVNYAQKFQGRVTMTRDTSTSTVYMELSSLRSDDTAVYYCARRRGAKFDYWGQGTLVTVSS VL: SYVLTQPPSASGTPGQSVTISCSGSTSNIGSHYVVWYQQLPGTAPRLLIYRNHQRPSGVPDRLSGSKSGTSASLAIGGLRSEDEADYYCAVWDDTLSGWVFGGGTKLTVLG
units: nM
test result: 0.233
//
binder: IgG form of antibody 406 (defucosylated IgG1) (antibody, V domains shown, Human IgG1, lambda light chain; produced in presence of Kifunensine (defucosylated); Biotinylated via cysteines for the human serum experiment) VH: QVQLVQSGAEVKKPGSSVKVSCKASEGTFSSYAMSWVRQAPGQGLEWMGGIIPIFGTVNYAQKFQGRVTMTRDTSTSTVYMELSSLRSDDTAVYYCARRGGSYFDYWGQGTLVTVSS VL: SYVLTQPPSASGTPGQSVTISCSGSTSNIGSHYVSWYQQLPGTAPRLLIYRNHQRPSGVPDRLSGSKSGTSASLAISGLRSEDEADYYCAVWDAKYRGWVFGGGTKLTVLG
units: nM
test result: 0.704
//
binder: IgG form of antibody 306 (defucosylated IgG1) (antibody, V domains shown, Human IgG1, lambda light chain; produced in presence of Kifunensine (defucosylated); Biotinylated via cysteines for the human serum experiment) VH: QVQLVQSGAEVKKPGSSVKVSCKASGGTFSSYAMSWVRQAPGQGLEWMGGIIPIFGTVNYAQKFQGRVTMTRDTSTSTVYMELSSLRPDDTAVYYCARRGGSYFDYWGQGTLVTVSS VL: SYVLTQPPSASGTPGQSVTISCSGSTSNIGSHYVSWYQQLPGTAPRLLIYRNHQRPSGVPDRLSGSKSGTSASLAISGLRSEDEADYYCAVWDAKYRGWVFGGGTKLTVLG
units: nM
test result: 0.708
